Reference for the values: patent US20180085455A1

- Assayed Target: T1, recombinant human ErbB3 protein (R&D systems) (human, UniProt P21860 20-643)
- T1 construct: Bought recombinant protein; also called HER3
- Assay Method Text: BLI (Octet QK384), human ErbB3 immobilized on AR2G sensor, IgG at 12.5-50 nM
Listing: Kd of selected binders
The reply should contain only the number, in pM.

Study these solved cases before continuing.
Task item: Can you look up the measured Kd of 442M3 (antibody, V domains shown, IgG1 (Selexis 085 vector, CHO)) VH: EVQLLESGGGLVQPGGSLRLSCAASGFTFSDYDMSWVRQAPGKGLEWVSSIYPDSGSTYYADSVQGRFTISRDNSKNTLYLQMNSLRAEDTAVYYCAKDRHMWPEGPFDYWGQGTLVTVSS VL: QSVLTQPPSASGTPGQRVTISCSGSSSNIGSNSGSWYQQLPGTAPKLLIYADNWRPSGVPDRFSGSKSGTSASLAISGLRSEDEADYYCAAWDSSLSGYVFGGGTKLTVLG for me?
Reply: 3.4

Task item: Request: 451M1 (antibody, V domains shown, IgG1 (Selexis 085 vector, CHO)) VH: EVQLLESGGGLVQPGGSLRLSCAASGFTFSDYDMSWVRQAPGKGLEWVSAIYYDSGSIYYADSAKGRFTISRDNSKNTLYLQMNSLRAEDTAVYYCAKDRLFMSDSTFDYWGQGTLVTVSS VL: QSVLTQPPSASGTPGQRVTISCSGSPSNIGNNSVTWYQQLPGTAPKLLIYYDSHRPSGVPDRFSGSKSGTSASLAISGLRSEDEADYYCGSWDASLNGYVFGGGTKLTVLG
Reply: 24.8

Task item: Cool, now 472P (antibody, V domains shown, IgG1 (Selexis 085 vector, CHO); also called anti-ErbB3 lead antibody 472P) VH: EVQLLESGGGLVQPGGSLRLSCAASGFTFSDYDMSWVRQAPGKGLEWVSGISYDGGNTYYADSVKGRFTISRDNSKNTLYLQMNSLRAEDTAVYYCARDPSWCLQDLCYYADGMDVWGQGTLVTVSS VL: QSVLTQPPSASGTPGQRVTISCSGSSSNIGSNSVSWYQQLPGTAPKLLIYADSNRPSGVPDRFSGSKSGTSASLAISGLRSEDEADYYCGSWDYSLSGYVFGGGTKLTVLG
Reply: 284

Task item: 472M1 (antibody, V domains shown, IgG1 (Selexis 085 vector, CHO)) VH: EVQLLESGGGLVQPGGSLRLSCAASGFTFSWYDLSWVRQAPGKGLEWVSGISYDGGNTYYADSVKGRFTISRDNSKNTLYLQMNSLRAEDTAVYYCARDPSWCLQDLCYYADGMDVWGQGTLVTVSS VL: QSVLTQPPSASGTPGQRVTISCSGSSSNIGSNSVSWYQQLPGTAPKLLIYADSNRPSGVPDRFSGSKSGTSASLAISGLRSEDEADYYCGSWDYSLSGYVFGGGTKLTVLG ?
Reply: 12.5

Further cases:
Task item: Find the recorded Kd belonging to 451P (antibody, V domains shown, IgG1 (Selexis 085 vector, CHO); also called anti-ErbB3 lead antibody 451P) VH: EVQLLESGGGLVQPGGSLRLSCAASGFTFSDYDMSWVRQAPGKGLEWVSAIYYDSGSIYYADSAKGRFTISRDNSKNTLYLQMNSLRAEDTAVYYCAKDRLFVSDSTFDYWGQGTLVTVSS VL: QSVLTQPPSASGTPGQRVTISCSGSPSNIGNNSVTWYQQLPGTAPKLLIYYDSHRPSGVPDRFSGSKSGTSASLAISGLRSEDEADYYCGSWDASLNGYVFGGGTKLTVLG and report it.
Reply: 53.5

Task item: Lookup 442M6 (antibody, V domains shown, IgG1 (Selexis 085 vector, CHO)) VH: EVQLLESGGGLVQPGGSLRLSCAASGFTFSDYDMSWVRQAPGKGLEWVSSIEPDSGSTDYADSVQGRFTISRDNSKNTLYLQMNSLRAEDTAVYYCAKDRHMWPEGPFDYWGQGTLVTVSS VL: QSVLTQPPSASGTPGQRVTISCSGSSSNIGSNSGSWYQQLPGTAPKLLIYADNWRPSGVPDRFSGSKSGTSASLAISGLRSEDEADYYCAAWDSSLSGYVFGGGTKLTVLG
Reply: 20.1

Task item: What do you have for 451M2 (antibody, V domains shown, IgG1 (Selexis 085 vector, CHO)) VH: EVQLLESGGGLVQPGGSLRLSCAASGFTFSDYDMSWVRQAPGKGLEWVSAIYYDSGSIYYADSAKGRFTISRDNSKNTLYLQMNSLRAEDTAVYYCAKDRLFASDSTFDYWGQGTLVTVSS VL: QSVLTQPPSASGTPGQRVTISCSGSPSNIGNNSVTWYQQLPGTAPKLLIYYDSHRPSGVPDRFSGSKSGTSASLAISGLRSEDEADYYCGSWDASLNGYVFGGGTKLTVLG ?
Reply: 12.6
